tested on: MYB; test: HiBiT protein abundance assay, MYB (K562 HiBiT knock-in); assay type: cell-based, human; settings: HiBiT knock-in K562 cells, 24 hours, top dose 10 μM
ASSAY_READOUT: IC50

Use these answered entries as a reference point.
> print(dat)
                                   compound  test.system  assay.readout   measured.result
1  Cn1cc2c(O)c(-c3cc4ccc(C5CCNCC5)nc4cn3)cc(Br)c2n1          MYB           IC50  1000 to 10000 nM
2  COc1cc2c(=O)n(C)cnc2cc1-c1ccc2nc(N3CCC(NC(C)(C)C)C3)ccc2n1 (stereo not shown)          MYB           IC50        > 10000 nM
3  C[C@@H]1CC(c2ccc3nc(-c4cc5cn(C)nc5cc4O)ccc3n2)C[C@H](C)N1 (stereo partly shown)          MYB           IC50    100 to 1000 nM

Then this compound:
# IC50 lookup, item CNC(=O)c1nc(-c2cc3cn(C)nc3c(F)c2O)nc2ccc(N3C[C@H](C)N[C@@H](C)C3)cc12 (single isomer, unassigned)
< 100 nM
